These data points were gathered from patent US5001160A.

Molecular target: postsynaptic muscarinic cholinergic receptors (bladder detrusor muscle) (Cavia porcellus, UniProt H0W1Z3)
Sequence (H0W1Z3 1-590): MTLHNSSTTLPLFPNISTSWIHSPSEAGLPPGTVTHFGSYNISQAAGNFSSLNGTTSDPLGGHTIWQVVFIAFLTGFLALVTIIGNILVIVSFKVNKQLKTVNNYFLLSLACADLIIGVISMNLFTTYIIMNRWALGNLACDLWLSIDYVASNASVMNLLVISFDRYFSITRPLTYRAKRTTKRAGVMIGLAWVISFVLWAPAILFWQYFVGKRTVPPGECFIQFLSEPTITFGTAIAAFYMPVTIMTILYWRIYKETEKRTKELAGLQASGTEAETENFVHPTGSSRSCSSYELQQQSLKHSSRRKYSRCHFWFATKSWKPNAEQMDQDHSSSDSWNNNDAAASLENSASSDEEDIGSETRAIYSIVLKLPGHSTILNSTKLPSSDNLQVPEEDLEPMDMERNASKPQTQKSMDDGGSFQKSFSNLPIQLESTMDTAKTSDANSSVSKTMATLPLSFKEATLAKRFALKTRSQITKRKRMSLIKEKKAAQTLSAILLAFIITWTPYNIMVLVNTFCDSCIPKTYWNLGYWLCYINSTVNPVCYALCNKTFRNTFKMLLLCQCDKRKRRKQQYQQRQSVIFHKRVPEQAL
Experiment: cell-based
Set-up: species or system guinea pig
Counter-ions that a name gives are not always drawn.
Hi there, I'd appreciate the recorded Kb for every entry that follows.
Give bare numbers, in nM.

As a guide, the following entries are already answered.
### Prompt // lookup Kb for O=C(CN1CCN(C2CCC2)CC1)C(O)(c1ccccc1)C1CCC1 (stereo not drawn) [Dihydrochloride]
### Response 230

### Prompt What do you get for O=C(CN1CCN(Cc2ccc(Cl)cc2)CC1)C(O)(c1ccccc1)C1CCC1 (stereo not drawn) [Dihydrochloride] ?
### Response 16

Hey, quick one: what's Kb for each of these?
1. O=C(CN1CCN(CCO)CC1)C(O)(c1ccccc1)C1CCCCC1 (stereo not drawn) [Dihydrochloride]
2. C=CCCN1CCN(CC(=O)C(O)(c2ccccc2)C2CCC2)CC1 (stereo not drawn)
3. CCCN1CCN(CC(=O)C(O)(c2ccccc2)C2CCC2)CC1 (stereo not drawn) [Dihydrochloride]
4. Cc1ccc(CN2CCN(CC(=O)C(O)(c3ccccc3)C3CCC3)CC2)cc1 (stereo not drawn) [Dihydrochloride]
5. C=CCN1CCN(CC(=O)C(O)(c2ccccc2)C2CCC2)CC1 (stereo not drawn) [Dihydrochloride]

### Response
1: 96; 2: 35; 3: 673; 4: 9.1; 5: 65
